Provenance of the data: patent US20080181886A1

# target_desc: human BAFF (human) (UniProt Q9Y275)
# Sequence (Q9Y275 82-285 limits assumed): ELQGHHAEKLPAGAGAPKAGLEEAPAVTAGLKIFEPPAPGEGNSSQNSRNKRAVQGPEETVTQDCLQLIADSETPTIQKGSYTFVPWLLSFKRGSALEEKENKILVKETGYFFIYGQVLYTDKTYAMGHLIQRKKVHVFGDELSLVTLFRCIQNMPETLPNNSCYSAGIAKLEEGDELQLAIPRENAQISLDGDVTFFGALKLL
# protocol_notes: shotgun scan, phage display
Listing of recorded F (BAFF) by entry.

Guide cases for F (BAFF), answers given:
>  <binder>
SLSCRKEQGKFYDHLLPDCISCASICGQHPKQCAYFCENKLR (receptor) [TACI_d2 R84P]

>  <F (BAFF)>
> 52

$$$$
>  <binder>
SLSCRKEQGKFYDHLLGDCISCASICGQHPKQCAYFCENKLR (receptor) [TACI_d2 R84G]

>  <F (BAFF)>
13

$$$$
>  <binder>
SLSCRKEQGKFYDHLLRDCISCASICGPHPKQCAYFCENKLR (receptor) [TACI_d2 Q95P]

>  <F (BAFF)>
> 54

$$$$

// field: F (BAFF); key: SLSCRKEQGKFYDHLLRDCISCASICGQDPKQCAYFCENKLR (receptor) [TACI_d2 H96D] ; value = > 29

Kindly note the recorded F (BAFF) for SLSCRKEQGKFYDHLPRDCISCASICGQHPKQCAYFCENKLR (receptor) [TACI_d2 L83P] , which is 15

SLSCRKEQGKFYDHLLRDCISCASICGQPPKQCAYFCENKLR (receptor) [TACI_d2 H96P] has a reported F (BAFF) of 20

F (BAFF) reported for this binder SLSCRKEQGKFDDHLLRDCISCASICGQHPKQCAYFCENKLR (receptor) [TACI_d2 Y79D] : > 9.5

Recorded F (BAFF) (binder SLSCRKEQGKFSDHLLRDCISCASICGQHPKQCAYFCENKLR (receptor) [TACI_d2 Y79S] ): > 36
